Where these numbers come from: PubChem BioAssay (NCI)

- System: UO-31 renal
- TEST NAME: NCI-60 one-dose screen, 48 h (100 = growth as untreated, 0 = no growth, -100 = all killed)
- TEST CONTEXT: 10 µM unless noted
The panel holds about 83,000 compounds, 20% with a hit somewhere; the sample as a whole holds those more often.
Note to self: class labels come from recorded growth, ranges listed here: b0 (below 50%), b1 (50% to below 80%), b2 (80% or more)

INSERT INTO results (compound, answer_label) VALUES
  ('O=C1OCC2=C1C(c1cccc(Br)c1)c1cc3c(cc1N2CCO)OCCO3 (configuration not stated)', 'b0'),
  ('Cc1nc2n[nH]c(N)c2nc1C', 'b2'),
  ('Cc1cccc(C(=O)O)n1', 'b1'),
  ('NC(N)=N/N=C/c1ccccc1', 'b2'),
  ('COc1ccc2[nH]cc(/C=C3\C(=O)Nc4ccccc43)c2c1', 'b0'),
  ('O=c1c2sc3ccccc3c2nnn1-c1ccc(F)c(Cl)c1', 'b0'),
  ('Nc1nc(N)c2cc(CNc3ccc(Cl)c(Cl)c3)ccc2n1', 'b0'),
  ('COS(=O)(=O)CCN(CCOS(C)(=O)=O)S(C)(=O)=O', 'b2'),
  ('CC1CN(CCCOC(=O)Nc2ccc(Cl)cc2)CCN1C(C)(C)C (configuration not stated)', 'b2'),
  ('Cc1nc2ccc(Nc3nc(N4CCOCC4)nc(N4CCN(C)CC4)n3)cc2n1Cc1ccccc1', 'b1'),
  ('C#CC[C@@H]1C[C@]2(C)[C@H]3CC[C@@H]4[C@H]5C(C(=C)C)CC[C@]5(C(=O)NCCCCCCCCN)CC[C@@]4(C)[C@]3(C)CC[C@H]2C(C)(C)[C@H]1OC(C)=O (some centres not stated)', 'b1'),
  ('COc1ccc(/C(=C\c2ccc3c(c2)OCO3)C(=O)Nc2nc3ccccc3s2)cc1', 'b2'),
  ('COC(=O)CNS(=O)(=O)c1ccc2c(c1)Cc1cc(S(=O)(=O)NCC(=O)OC)ccc1-2', 'b2'),
  ('CC(C)N=C1CCCC1C(=S)SSC(=S)C1CCCC1=NC(C)C (configuration not stated)', 'b1'),
  ('O=C(Nc1ccc2ncnc(Nc3ccc(F)c(Cl)c3)c2c1)c1cccs1', 'b0'),
  ('CC(C)OC(=O)c1ccc([N+](=O)[O-])cc1', 'b2'),
  ('CC1=C(C(=O)Nc2ccc(F)cc2)C(c2ccccc2)C2=C(CC(C)(C)CC2=O)N1 (configuration not stated)', 'b1'),
  ('COc1ccc2[nH]c(O)c(/C=c3/ccc4c(c3)N=C(c3ccc(C(F)(F)F)cc3)N=4)c2c1', 'b2');

* * *

- Tested on: SK-MEL-28 melanoma
- TEST NAME: NCI-60 one-dose screen, 48 h
- TEST CONTEXT: 10 µM unless noted
- Method: Growth inhibition of the SK-MEL-28 human tumor cell line is measured as a screen for anti-cancer activity. Cells are grown in 96 well plates and exposed to the test compound for 48 hours. Compounds are tested at a single concentration, which is 10^-5 M for most compounds. The reported endpoint is percent growth (GI% or GIPRCNT), where numbers from 0 - 100% represent growth inhibition, and numbers from -100% - 0 represent cell death. For example, a value of 40 represents 60% growth inhibition. […]
This is part of a sample that, as a whole, favours compounds with a hit. Of some 83,000 tested, about 20% had one in any assay. Calls of active or inactive are those of the source. The calls were made as follows: active = growth percent below 10; inactive = the rest.
Outcome codes: 1 (yes) for active, 0 (no) for inactive

INSERT INTO results (molecule, target_entity, answer_label) VALUES
  ('COS(=O)(=O)CCN(CCOS(C)(=O)=O)S(C)(=O)=O', 'SK-MEL-28 melanoma', '0 (no)'),
  ('OC(c1cc(-c2ccc(C(F)(F)F)cc2)nc(-c2ccc(C(F)(F)F)cc2)c1)C1CCCCN1 (stereo not given)', 'SK-MEL-28 melanoma', '1 (yes)'),
  ('CNCCCNc1ccnc2cc(Cl)ccc12', 'SK-MEL-28 melanoma', '1 (yes)'),
  ('O=C(Nc1cnc(C(F)(F)F)cn1)c1cc(Cl)ccc1O', 'SK-MEL-28 melanoma', '1 (yes)'),
  ('COc1ccc2[nH]cc(C(c3ccc(Cl)cc3)N3CCCC3)c2c1 (stereo not given)', 'SK-MEL-28 melanoma', '0 (no)'),
  ('COc1cc(C2CC(c3ccc(Nc4ccnc5cc(Cl)ccc45)cc3)=NN2c2ccccc2)cc(OC)c1OC (stereo not given)', 'SK-MEL-28 melanoma', '0 (no)'),
  ('CCN(CC)CCCNc1cccc2c(C)cc(OC)nc12', 'SK-MEL-28 melanoma', '0 (no)'),
  ('NC(N)=N/N=C\c1ccc(OCc2ccccc2)cc1', 'SK-MEL-28 melanoma', '0 (no)'),
  ('CCCCCCCCCCCCCCC(C(=O)OCC)C(=O)OCC', 'SK-MEL-28 melanoma', '0 (no)'),
  ('CC(=O)OC1Oc2cc(C)c(C)cc2-c2oc(=O)c(-c3ccc(F)cc3)cc21 (stereo not given)', 'SK-MEL-28 melanoma', '0 (no)'),
  ('CCN(CC)c1ccc2nc3c4ccccc4c(=O)cc-3n(-c3ccccc3)c2c1', 'SK-MEL-28 melanoma', '1 (yes)'),
  ('COc1ccc([C@@H]2[C@@H](Oc3ccccc3)C(=O)N2c2cc(OC)c(OC)c(OC)c2)cc1F', 'SK-MEL-28 melanoma', '0 (no)'),
  ('CCCCCCCCCCCCCCCCS(=O)(=O)Nc1cc(C(=O)NN)cc(C(=O)NN)c1', 'SK-MEL-28 melanoma', '0 (no)'),
  ('CC(=O)c1ccc(-n2c(-c3cc(-c4ccsc4)n[nH]3)n[nH]c2=S)cc1', 'SK-MEL-28 melanoma', '0 (no)'),
  ('COc1ccc(-c2nsc3c2NC(=O)CC3c2ccc3c(c2)OCO3)cc1 (stereo not given)', 'SK-MEL-28 melanoma', '0 (no)'),
  ('CC1CN(CCCOC(=O)Nc2ccc(Cl)cc2)CCN1C(C)(C)C (stereo not given)', 'SK-MEL-28 melanoma', '0 (no)'),
  ('COc1ccc(/C(=C\c2cc(OC)c(OC)c(OC)c2)C(=O)N2CCCNCC2)cc1', 'SK-MEL-28 melanoma', '0 (no)'),
  ('COc1ccc2[nH]c(O)c(/C=c3/ccc4c(c3)N=C(c3ccc(C(F)(F)F)cc3)N=4)c2c1', 'SK-MEL-28 melanoma', '0 (no)'),
  ('O=C(Nc1ccc(Br)cc1)Nc1ccccc1Cl', 'SK-MEL-28 melanoma', '0 (no)'),
  ('O=C1C(Cl)=C(N/N=c2/[nH][nH]/c(=N/NC3=C(Cl)C(=O)c4ccccc4C3=O)c3ccccc23)C(=O)c2ccccc21', 'SK-MEL-28 melanoma', '0 (no)'),
  ('COc1cccc(OCC(O)CN2CCN(c3ccccc3)CC2)c1 (stereo not given)', 'SK-MEL-28 melanoma', '0 (no)'),
  ('COc1cc(C2CC(c3cccc(Nc4ccnc5cc(Cl)ccc45)c3)=NN2c2ccccc2)cc(OC)c1OC (stereo not given)', 'SK-MEL-28 melanoma', '0 (no)'),
  ('Cn1c(=O)c2[nH]c(Cc3ccc4c(c3)OCO4)nc2n(C)c1=O', 'SK-MEL-28 melanoma', '0 (no)'),
  ('COc1ccc(CCN2COc3c([C@@H](C)CCC=C(C)C)ccc(C)c3C2)cc1OC', 'SK-MEL-28 melanoma', '0 (no)'),
  ('Cc1nc2ccc(Nc3nc(N4CCOCC4)nc(N4CCN(C)CC4)n3)cc2n1Cc1ccccc1', 'SK-MEL-28 melanoma', '0 (no)'),
  ('CC(=O)c1nn(-c2ccccc2)/c(=N\N=C\c2coc3ccc(F)cc3c2=O)s1', 'SK-MEL-28 melanoma', '0 (no)'),
  ('C/C(=N\OC(=O)Nc1ccccc1)c1ccccc1', 'SK-MEL-28 melanoma', '0 (no)'),
  ('CCCCN(CCCC)CCCN=c1nc2c(c(N)n1-c1ccccc1)c(=S)n(-c1ccccc1)c(=S)n2-c1ccccc1', 'SK-MEL-28 melanoma', '1 (yes)'),
  ('CCOC(=O)c1ccc(NCCC(=O)O)cc1', 'SK-MEL-28 melanoma', '0 (no)'),
  ('Nc1nc(N)c2cc(Sc3ccc(Cl)cc3)ccc2n1', 'SK-MEL-28 melanoma', '0 (no)'),
  ('O=c1[nH]cnc2nc[nH]c12', 'SK-MEL-28 melanoma', '0 (no)'),
  ('N#CC1=C(N)Oc2nc[nH]c(=O)c2C1c1cccs1 (stereo not given)', 'SK-MEL-28 melanoma', '0 (no)'),
  ('CCCc1n(Cc2ccc3ccccc3n2)cc[n+]1Cc1ccc2ccccc2c1', 'SK-MEL-28 melanoma', '1 (yes)'),
  ('C=C1NC(=O)C(C(C)CC)NC(=O)C2CSCC(NC(=O)CCC(=O)O)C(=O)NC(Cc3ccccc3)C(=O)NC(C)C(=O)NC(CC(C)CC)C(=O)NC(C(=O)NC(Cc3ccccc3)C(=O)N3CCCC3C(=O)N2)C(C)OC(=O)C(CO)NC(=O)C(C(O)COC)N(C)C(=O)C(C(C)C)NC(=O)C(CC(C)CC)NC1=O (stereo not given)', 'SK-MEL-28 melanoma', '0 (no)'),
  ('CCc1oc2ccccc2c1C(=O)c1cc(I)c(O)c(I)c1', 'SK-MEL-28 melanoma', '0 (no)'),
  ('NCCCOc1cc2ccccc2cc1C(=O)NCCCOc1cc2ccccc2cc1C(=O)Nc1ccc(Cl)cc1O', 'SK-MEL-28 melanoma', '1 (yes)'),
  ('COc1ccc(C2=NN(C=O)C(c3ccc(OS(=O)(=O)c4ccc(C)cc4)c(OC)c3)C2)cc1 (stereo not given)', 'SK-MEL-28 melanoma', '0 (no)'),
  ('NC(N)=N/N=C/c1ccccc1', 'SK-MEL-28 melanoma', '0 (no)'),
  ('COc1ccc(/C(=C\c2cc(OC)c(OC)c(OC)c2)C(=O)Nc2nc3ccc(Cl)cc3s2)cc1', 'SK-MEL-28 melanoma', '0 (no)'),
  ('CCN(CC)CCCCCCCNc1cc(OC)cc2c(C)ccnc12', 'SK-MEL-28 melanoma', '0 (no)');
